# experimental-target: UniProt Q8VGJ5
# Sequence (Q8VGJ5 as listed by the source): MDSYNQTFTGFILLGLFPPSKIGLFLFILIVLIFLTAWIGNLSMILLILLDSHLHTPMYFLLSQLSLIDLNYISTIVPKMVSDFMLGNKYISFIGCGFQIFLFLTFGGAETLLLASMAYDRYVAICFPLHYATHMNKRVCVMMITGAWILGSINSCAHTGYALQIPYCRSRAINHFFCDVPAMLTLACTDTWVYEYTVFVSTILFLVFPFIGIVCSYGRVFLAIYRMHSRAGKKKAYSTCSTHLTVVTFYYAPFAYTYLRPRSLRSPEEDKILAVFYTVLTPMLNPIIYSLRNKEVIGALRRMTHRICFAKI
# particulars: stereoisomer not certain
Give your call using only these classes: active, inactive

Past entries and their recorded results:
{"compound": "CC12CCC(CC1=O)C2(C)C (stereo not given)", "class-label": "inactive"}
{"compound": "C=CCOC(=O)CCCCCC", "class-label": "inactive"}
{"compound": "CC(C)=CCCC(C)CCO (stereo not given)", "class-label": "inactive"}
{"compound": "C=C(C)C1CCC(C)C(=O)C1 (stereo not given)", "class-label": "active"}
{"compound": "CCCC(=O)C(C)=O", "class-label": "inactive"}

Input line: Tell me the recorded outcome of this test for CCCCC(C)=O .
Output line: active

Input line: Tell me the recorded outcome of this test for CCCCCCCCC(=O)O .
Output line: inactive

Input line: Tell me the recorded outcome of this test for CCCCCCCCO .
Output line: inactive

Input line: Tell me the recorded outcome of this test for O=C1CCOc2ccccc21 .
Output line: active

Input line: Tell me the recorded outcome of this test for O=C1Cc2ccccc2O1 .
Output line: inactive

Source: the M2OR odorant receptor database
